# Tested on: HCC-2998 colon
# Experimental Protocol: NCI-60 one-dose screen, 48 h (100 = growth as untreated, 0 = no growth, -100 = all killed)
# Experimental Setup: 10 µM
The panel holds about 83,000 compounds, 20% with a hit somewhere; the sample as a whole holds those more often.
Label rule, in plain words: growth of -20% and up is 1 (yes), under -20% is 0 (no).

Answered cases to consult:
N#Cc1c(C(F)(F)F)cc(Nc2ccc3nc(NCCN4CCCC4)oc3c2)n2c1nc1ccccc12; 1 (yes)
C=CC(=O)N1CCC[C@H](n2c(=O)n(-c3ccc(Oc4ccccc4)cc3)c3c(N)ncnc32)C1; 1 (yes)
CC(N)C(Cc1ccc(Cl)cc1)c1ccc(Cl)cc1 (configuration not stated); 1 (yes)
N#CC1(C#N)C(c2cccs2)NC(c2cccs2)C1(C#N)C#N (configuration not stated); 1 (yes)
Cn1ccnc1C(=O)/C=C/c1ccc(CC(=O)Nc2ccc(S(F)(F)(F)(F)F)cc2)cc1; 0 (no)
CC(C)(C)c1nc(-c2cccc(NS(=O)(=O)c3c(F)cccc3F)c2F)c(-c2ccnc(N)n2)s1; 1 (yes)
COC(=O)C1CCc2sc3ncnc(Nc4cn[nH]c4C(=O)Nc4ccc(CN5CCN(C)CC5)cc4)c3c21 (configuration not stated); 1 (yes)
COC(=O)N[C@@H](C)CNc1nccc(-c2cn(C(C)C)nc2-c2cc(Cl)cc(NS(C)(=O)=O)c2F)n1; 1 (yes)

(Q) Can CN1CC[C@H](c2c(O)cc(O)c3c(=O)cc(-c4ccccc4Cl)oc23)[C@H](O)C1 be said to have growth at or above -20%?
(A) 0 (no)

(Q) Can CO/C=C/C(=O)c1cc2cnc3c(=N)cc(NC(=O)C(C)C)c([nH]1)c23 be said to have growth at or above -20%?
(A) 0 (no)

(Q) Can CCCCCCCC(=O)SCC/C=C/[C@@H]1CC(=O)NCc2cccc(n2)C2=N[C@@](C)(CS2)C(=O)N[C@@H](C(C)C)C(=O)O1 be said to have growth at or above -20%?
(A) 0 (no)

(Q) Can CC(C)=CCc1cc2c(cc1O)C1=C(C(=O)C3=C(NCCS3(=O)=O)C1=O)C(C=C(C)C)O2 (configuration not stated) be said to have growth at or above -20%?
(A) 1 (yes)
